Test system: WT Max(13-93) synthetic (M65Nle)
assay summary: PBM 8-mer E-score (E-score (rank enrichment, -0.5 to 0.5)); higher = stronger preferential binding
In all, about 33,000 sequences were measured (“E-score (rank enrichment, -0.5 to 0.5)”: median about -0.0075, highest 2% from about 0.23 on). The sample as a whole holds a higher share of the highest values than the screen did.
Assign 1 to entries whose PBM 8-mer E-score meets or exceeds 0.2; assign 0 to the rest.

{"sequence input": "CGACCAGC", "cat": 0}
{"sequence input": "CACGAGGC", "cat": 1}
{"sequence input": "CTGGACAA", "cat": 0}
{"sequence input": "CTTGTTGC", "cat": 0}
{"sequence input": "ATATAGTA", "cat": 1}
{"sequence input": "CACGAGTA", "cat": 1}
{"sequence input": "AGGGACAA", "cat": 0}
{"sequence input": "ATATATGG", "cat": 1}
{"sequence input": "AGTGGCAT", "cat": 0}
{"sequence input": "CACGAGGA", "cat": 1}
{"sequence input": "CTATATGA", "cat": 0}
{"sequence input": "GAACCAAC", "cat": 0}
{"sequence input": "TAATGTGA", "cat": 1}
{"sequence input": "AAATGTGA", "cat": 0}
{"sequence input": "CTATATGC", "cat": 0}
{"sequence input": "GTATATGA", "cat": 1}
{"sequence input": "ATATAGTG", "cat": 1}
{"sequence input": "AGCTAACT", "cat": 0}
{"sequence input": "TATAAATA", "cat": 1}
{"sequence input": "TCAAAGGA", "cat": 0}
{"sequence input": "CTGATCAG", "cat": 0}
{"sequence input": "TGGGACAA", "cat": 1}
